meta.source: paper PMC4057637

- experiment: Hemolytic activity
- Type: cell-based
- recorded_conditions: healthy human erythrocytes, 5 % (v/v) suspension, at MIC
parameter_measured: hemolysis at 1 h (%)
Number only, in %; omit the unit.

Solved cases below.
- O=C(O)c1ccc(-c2ccc(/C=C3\S/C(=N\c4ccccc4)N(c4ccc(Cl)cc4)C3=O)o2)cc1: 0.14
- O=C(O)c1ccc(-c2ccc(C=C3SC(=Nc4ccc(F)cc4)N(c4ccc(F)cc4)C3=O)s2)cc1: 0.52

Kindly note the recorded hemolysis at 1 h for `O=C(O)c1ccc(-c2ccc(/C=C3\S/C(=N\c4ccccc4)N(c4ccc(F)cc4)C3=O)s2)cc1` , which is 0.06

Kindly note the recorded hemolysis at 1 h for `O=C(O)COc1ccc(C=C2SC(=Nc3ccc(Cl)cc3)N(c3ccc(Cl)cc3)C2=O)cc1` , which is 0.14

Kindly note the recorded hemolysis at 1 h for `O=C(O)c1ccc(-c2ccc(C=C3SC(=Nc4ccc(Cl)cc4)N(c4ccc(Cl)cc4)C3=O)o2)cc1` , which is 0.12

Kindly note the recorded hemolysis at 1 h for `CCc1ccccc1/N=C1\S/C(=C\c2ccc(OCC(=O)O)c(OC)c2)C(=O)N1c1ccccc1CC` , which is 2.31

Kindly note the recorded hemolysis at 1 h for `O=C(O)c1cccc(-c2ccc(C=C3SC(=Nc4ccc(Cl)cc4)N(c4ccc(Cl)cc4)C3=O)o2)c1` , which is 0.14
